For each entry below, report its self-cleavage value.
B1: LINE1-mini (parent)
chain: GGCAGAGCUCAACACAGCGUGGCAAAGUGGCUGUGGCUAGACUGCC

variants of: B1; experiment: self-cleavage, relative activity (ratio to wild type); higher = more cleavage; in vitro, sequencing; the parent is a self-cleaving ribozyme
No unit in the answer, please; the number alone is enough.

Suppose we examine the variant U43A G44A ; what self-cleavage value has been reported?
0.1

Can you handle C15U U28A next?
1.35

Can you handle A26U U34G next?
0.15

Can you handle U34A C46A next?
0.06
